From: patent US20250255981A1

Tested on: THP1-Dual™ cells (IRF-Lucia luciferase reporter)
Assay: THP1-Dual™ cell reporter assay
Assay type: cell-based, human
Conditions: Homo sapiens, THP1-Dual; small molecules, 24 h; >10,000 nM = minimal activity up to 10 μM; some values average of multiple experiments; read-out: EC50, Lucia reporter signal
Listing of entries alongside the reported EC50.
Give a bare numeral; the unit nM is implied.

CCn1nc(C)cc1C(=O)Nc1nc2cc(C(N)=O)cc(OC)c2n1C/C=C/Cn1c(NC(=O)c2cc(C)nn2CC)nc2cc(C(N)=O)cc(OCCCN(C)C(=O)[C@H](CC(=O)OC)NC(=O)CCN3C(=O)CC(SC[C@H](N)C(=O)O)C3=O)c21 (stereo partly drawn) ... 275

Task item: So what EC50 did CCn1nc(C)cc1C(=O)Nc1nc2cc(C(N)=O)cc(OC)c2n1C/C=C/Cn1c(NC(=O)c2cc(C)nn2CC)nc2cc(C(N)=O)cc(OCCCN(C)C(=O)CCN3C(=O)C=CC3=O)c21 get with THP1-Dual™ cells (IRF-Lucia luciferase reporter)?
Reply: 37
